tested on: tetrabenazine-induced depression in mice; assay: Antagonism of tetrabenazine-induced sedation and depression in mice, orally at 1 hour post-drug; assay type: in vivo, Carworth CF1 S female mice; conditions: Mus musculus, po, 1 h, mice, oral, 1 hour post-drug; tetrabenazine 32 mg/kg intraperitoneally 30 minutes after compound; read-out: ED50 for prevention of exploratory loss
Metric: ED50 (mg/kg)
Give just the number in mg/kg; leave the unit off.

**Q:** Recall the reported ED50 of c1ccc2c(c1)C(=NOCCN1CCOCC1)c1ccccc1C1CC21 (centres unmarked) when tested on tetrabenazine-induced depression in mice.
**A:** 3

**Q:** Recall the reported ED50 of CN(C)CCC=C1c2ccccc2CCc2ccccc21 [amitriptyline, reference compound] when tested on tetrabenazine-induced depression in mice.
**A:** 4.7

**Q:** Recall the reported ED50 of CN(C)CCON=C1c2ccccc2C2CC2c2ccccc21 (centres unmarked) [H CH2 CH2 N(CH3)2] when tested on tetrabenazine-induced depression in mice.
**A:** 2.3

**Q:** Recall the reported ED50 of c1ccc2c(c1)C(=NOCCN1CCCC1)c1ccccc1C1CC21 (centres unmarked) when tested on tetrabenazine-induced depression in mice.
**A:** 10.4

**Q:** Recall the reported ED50 of CC(C)N(CCON=C1c2ccccc2C2CC2c2ccccc21)C(C)C (centres unmarked) [H CH2 CH2 N[CH(CH3)2]2] when tested on tetrabenazine-induced depression in mice.
**A:** 5.2

**Q:** Recall the reported ED50 of CN(C)CCCON=C1c2ccccc2C2CC2c2ccccc21 (centres unmarked) [H CH2 CH2 CH2 N(CH3)2] when tested on tetrabenazine-induced depression in mice.
**A:** 15.6

**Q:** Recall the reported ED50 of CNCCON=C1c2ccccc2C2CC2c2ccccc21 (centres unmarked) [H CH2 CH2 NHCH3] when tested on tetrabenazine-induced depression in mice.
**A:** 1.9

**Q:** Recall the reported ED50 of c1ccc2c(c1)C(=NOCCN1CCCCC1)c1ccccc1C1CC21 (centres unmarked) when tested on tetrabenazine-induced depression in mice.
**A:** 4.7
